Molecular target: T1, IL10Rα/IL2Rγ receptor (human) (UniProt Q13651)
T1 sequence (looked up) 1: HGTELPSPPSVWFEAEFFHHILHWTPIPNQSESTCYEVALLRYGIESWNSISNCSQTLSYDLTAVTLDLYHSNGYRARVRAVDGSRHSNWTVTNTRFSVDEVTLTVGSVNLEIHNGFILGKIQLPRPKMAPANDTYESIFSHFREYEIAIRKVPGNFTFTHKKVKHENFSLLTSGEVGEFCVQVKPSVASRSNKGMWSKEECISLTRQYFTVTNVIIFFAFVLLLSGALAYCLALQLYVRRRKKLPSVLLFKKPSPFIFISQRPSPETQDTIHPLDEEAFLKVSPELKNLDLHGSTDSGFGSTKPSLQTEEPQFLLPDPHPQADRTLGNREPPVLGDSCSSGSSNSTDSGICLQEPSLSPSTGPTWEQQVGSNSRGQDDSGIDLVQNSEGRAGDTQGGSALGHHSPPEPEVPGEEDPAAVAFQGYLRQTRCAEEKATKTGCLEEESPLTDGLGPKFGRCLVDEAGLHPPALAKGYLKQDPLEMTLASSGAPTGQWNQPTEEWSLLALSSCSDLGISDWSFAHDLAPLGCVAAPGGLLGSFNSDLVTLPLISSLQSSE
T1 sequence (looked up) 2: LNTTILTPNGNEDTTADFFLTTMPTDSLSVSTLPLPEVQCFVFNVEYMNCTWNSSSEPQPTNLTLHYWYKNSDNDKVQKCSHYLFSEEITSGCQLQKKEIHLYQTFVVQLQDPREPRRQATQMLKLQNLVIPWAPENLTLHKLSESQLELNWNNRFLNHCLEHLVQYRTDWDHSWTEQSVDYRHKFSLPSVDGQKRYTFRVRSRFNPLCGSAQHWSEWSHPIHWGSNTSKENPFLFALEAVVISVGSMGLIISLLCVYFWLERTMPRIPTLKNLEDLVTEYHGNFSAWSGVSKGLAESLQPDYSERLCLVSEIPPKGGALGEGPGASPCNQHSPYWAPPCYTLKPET
Experiment: cell-based or functional assay
assay-endpoint: IFNγ secretion, CD8 T cells, at 0.001 µM (pg/mL)
Answers are plain numbers, in pg/mL.

Solved cases (2 shown):
{"binder": "hIL10Ra_VHH14 - hIL2Rg_VHH19, linker GS, tag his (bispecific antibody, not shown: small tags and cut ends) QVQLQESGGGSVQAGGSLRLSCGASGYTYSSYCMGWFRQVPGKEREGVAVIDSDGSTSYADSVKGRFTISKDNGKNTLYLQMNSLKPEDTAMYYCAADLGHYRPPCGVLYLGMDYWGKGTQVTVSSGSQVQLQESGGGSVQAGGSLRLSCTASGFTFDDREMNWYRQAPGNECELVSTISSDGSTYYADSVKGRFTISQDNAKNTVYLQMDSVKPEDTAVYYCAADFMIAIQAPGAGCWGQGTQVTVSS", "recorded-measurement": 105000}
{"binder": "hIL10Ra_VHH14 - hIL2Rg_VHH19, linker …, tag his (bispecific antibody, not shown: small tags and cut ends) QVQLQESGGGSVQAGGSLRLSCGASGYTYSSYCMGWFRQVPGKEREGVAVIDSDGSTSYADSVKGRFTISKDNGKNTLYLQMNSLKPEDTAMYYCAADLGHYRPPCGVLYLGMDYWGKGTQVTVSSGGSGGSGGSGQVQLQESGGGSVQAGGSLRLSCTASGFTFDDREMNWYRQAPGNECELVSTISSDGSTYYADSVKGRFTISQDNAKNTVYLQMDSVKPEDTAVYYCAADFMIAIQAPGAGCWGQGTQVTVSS", "recorded-measurement": 125000}

Shift focus to the following entry.
*Q* Need IFNγ secretion, CD8 T cells, at 0.001 µM of hIL10Ra_VHH14 - hIL2Rg_VHH19, linker GGSGGS, tag his (bispecific antibody, not shown: small tags and cut ends) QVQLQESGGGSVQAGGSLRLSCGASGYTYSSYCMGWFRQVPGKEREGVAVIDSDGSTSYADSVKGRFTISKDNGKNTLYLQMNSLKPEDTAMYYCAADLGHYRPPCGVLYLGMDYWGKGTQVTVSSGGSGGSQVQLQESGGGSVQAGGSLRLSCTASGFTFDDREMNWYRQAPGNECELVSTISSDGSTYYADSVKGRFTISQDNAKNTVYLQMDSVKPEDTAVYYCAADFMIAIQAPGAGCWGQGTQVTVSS , thanks.
*A* 110000
